target.system: Solute carrier family 2, facilitated glucose transporter member 1 (Homo sapiens) (UniProt P11166)
Sequence (P11166 whole entry): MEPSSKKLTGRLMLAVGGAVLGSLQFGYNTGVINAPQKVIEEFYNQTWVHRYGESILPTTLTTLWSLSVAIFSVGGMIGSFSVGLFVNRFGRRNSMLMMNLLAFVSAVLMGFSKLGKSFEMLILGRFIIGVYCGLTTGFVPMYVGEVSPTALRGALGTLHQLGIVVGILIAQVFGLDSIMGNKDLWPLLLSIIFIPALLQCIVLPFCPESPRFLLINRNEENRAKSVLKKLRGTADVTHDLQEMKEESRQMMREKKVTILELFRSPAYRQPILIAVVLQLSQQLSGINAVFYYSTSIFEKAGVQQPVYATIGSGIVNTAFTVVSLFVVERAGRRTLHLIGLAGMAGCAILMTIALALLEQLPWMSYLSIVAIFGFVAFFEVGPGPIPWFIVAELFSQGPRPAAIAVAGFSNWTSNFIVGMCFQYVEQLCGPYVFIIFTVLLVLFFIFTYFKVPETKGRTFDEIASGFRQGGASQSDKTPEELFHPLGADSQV
assay: ST_JUDE_LEISH: Cytotoxicity at 2uM final concentration against transgenic Leishmania Mexicana promastigotes LmGLUT1 that are glucose transport deficient and complemented with the human glucose transporter GLUT1. Activity is measured by DNA content using SYBR green in vitro
Format: functional
metric.name: inhibition (%)

compound | metric.name | experimental.result
Cn1cncc1-c1ccc2ncnc(Nc3ccc(OCc4ccccc4)cc3)c2c1 | inhibition | 0.55
CON=Cc1ccn(-c2ccc(O)c3c2C[C@H]2C[C@H]4[C@H](N(C)C)C(O)=C(C(N)=O)C(=O)[C@@]4(O)C(O)=C2C3=O)c1 | inhibition | 5.15
O=C(Nc1ccc(OC(F)(F)F)cc1)NC1CCN(c2ccnc3ccccc23)CC1 | inhibition | 6.11
Cc1c(C)n(C2CCCC2)c2ncnc(OC3CCN(CC(=O)NC4CC4)CC3)c12 | inhibition | 9.5
Cc1cc(N[C@@H](Cc2ccccc2)C(=O)NCCc2ccccc2)nc(NCCc2ccc(F)cc2)n1 | inhibition | -1.91
CC(C)(C)c1ccc2oc(=O)n(C3CCN(C(=O)c4ccc([N+](=O)[O-])o4)CC3)c2c1 | inhibition | 5.8
O=C(/C=C/c1ccc(Cl)c(Cl)c1)NCCCCCN1CCC(NC(=O)Nc2cc(F)ccc2F)CC1 | inhibition | 2.34
O=C(Cn1c(CCc2cccc(F)c2F)nc(=O)c2ccccc21)N(Cc1ccc(-c2ccc(C(F)(F)F)cc2)cc1)C1CCN(C2=NCCS2)CC1 | inhibition | 3.56
CCOC(=O)CN(c1ccc(Br)cc1OCCOc1cc(Br)ccc1N(CC(=O)OCC)C(C)C(=O)OCC)C(C)C(=O)OCC (stereo not given) | inhibition | 1.16
COc1c(C2CCN(CCCCNC(=O)C=Cc3ccccc3C(F)(F)F)CC2)ccc2c1CCCC2 | inhibition | -0.06
COc1ccc(CNCc2ccc(F)cc2)cc1-c1cccc(S(=O)(=O)NCCN2CCCC2)c1 | inhibition | 0.82
CCOC(=O)c1c(C)n(-c2ccccc2)c2ccc(OC(=O)COc3ccc(Cl)cc3Cl)cc12 | inhibition | 7.5
CN1CCCC(CN2CCN(Cc3cccc(-c4csc(-c5nc6ccccc6[nH]5)c4)c3)CC2)C1 (stereo not given) | inhibition | 3.41
O=C(Nc1cccc(C(F)(F)F)c1)c1ccc(S(=O)(=O)NC2CCN(CC3CCCCC3)C2)cc1 (stereo not given) | inhibition | 3.79
CC1CCCCC1N(C)C1CCN(CCCNC(=O)C=Cc2cccc(C(F)(F)F)c2)CC1 (stereo not given) | inhibition | 4.22
COCCNCc1ncsc1-c1ccc2c(Nc3ccc(Oc4ccccc4)cc3)ccnc2c1 | inhibition | 0.02
Cc1ccc(Cc2cnc(CN3CCCCC3)c(O)c2)cc1 | inhibition | -1.22
COc1ccc(NC(=O)C2c3ccccc3C(=O)N(C3CCCC3)C2c2cccs2)cc1 (stereo not given) | inhibition | 5.7
CC(C)C(=O)Nc1c(F)cc(F)cc1CCc1ccc(O)cc1 | inhibition | 7.29
CN1CCN(c2cc(NC(=O)c3ccc(-c4ccc(Cl)cc4)cc3)ccc2Cl)CC1 | inhibition | -0.77
O=C(Nc1ccc(O)c(-c2nc3ccccc3[nH]2)c1)c1ccc([N+](=O)[O-])cc1 | inhibition | -2.13
CNCCCNc1ccnc2cc(Cl)ccc12 | inhibition | 3.07
CN1CCN(Cc2ccc(-c3ccc4c(Nc5ccc(Cl)cc5F)ccnc4c3)o2)CC1 | inhibition | 11.9
O=C(COc1ccccc1)Nn1cnc2ccccc21 | inhibition | 3.76
CCOC(=O)C(C#N)NC(=O)C=Cc1ccccc1 (stereo not given) | inhibition | 7.73
c1cc(CN2CCN(CCN3CCOCC3)CC2)cc(-c2ccc(-c3nc4ccccc4[nH]3)cc2)c1 | inhibition | 10.9
O=C(CSc1nc(-c2ccccc2Cl)ns1)Nc1cccc(Cl)c1 | inhibition | 1.59
Cc1cc(C(=O)CN2C(=O)NC(C)(c3cccc4ccccc34)C2=O)c(C)n1Cc1ccco1 (stereo not given) | inhibition | 6.55
CCN(CC)CC(O)c1cc(-c2ccc(OC)cc2)nc2cc(Cl)ccc12 (stereo not given) | inhibition | 6.97
COc1ccc(-c2cccc(CNCc3ccc(F)cc3)c2)cc1S(=O)(=O)NCCN1CCCC1 | inhibition | 7.5
